Where do these numbers come from? They come from the supplement of paper PMC12406974.

Tested on: U2OS BAX/BAK1 DKO;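 also: FLICK assay: SYTOX Green fluorescence of dead cells tracked over time after drugging in 96-well plates, with total cell counts taken from Triton X-100 lysed wells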
ASSAY_PROCEDURE: maximum observed lethal fraction; higher = more cell death
PARTICULARS: 0.01 µM
Use 1 when the recorded maximum observed lethal fraction is no lower than 0.06; use 0 when it is lower.

In [3]: df
Out[3]:
                                   compound  measurement_target  label
0  CC(=O)[C@]1(O)Cc2c(O)c3c(c(O)c2[C@@H](O[C@H]2C[C@H](N)[C@H](O)[C@H](C)O2)C1)C(=O)c1ccccc1C3=O [Idarubicin]   U2OS BAX/BAK1 DKO      1
1  CC(=O)c1c(C)c2cnc(Nc3ccc(N4CCNCC4)cn3)nc2n(C2CCCC2)c1=O [Palbociclib]   U2OS BAX/BAK1 DKO      1
2  CN(C)C(=O)c1cc2cnc(Nc3ccc(N4CCNCC4)cn3)nc2n1C1CCCC1 [Ribociclib]   U2OS BAX/BAK1 DKO      0

Entry CCN1CCN(Cc2ccc(Nc3ncc(F)c(-c4cc(F)c5nc(C)n(C(C)C)c5c4)n3)nc2)CC1 [Abemaciclib] : is its maximum observed lethal fraction no less than 0.06? 1
